Reported inhibition is given for each of the following molecules.
# Tested on: M18 aspartyl aminopeptidase (Plasmodium falciparum 3D7)
# protocolDetails: inhibition of P. falciparum M18 aminopeptidase – biochemical, QFRET, recombinant enzyme, primary screen (AID 1822);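 note: 0% = plate median of test compound wells and 100% = 2 mM ZnCl2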
# details: recombinant PfM18AAP, H-Glu-NHMec fluorogenic cleavage; at 7.35 µM; hits give high values
About 3,500 (1.2%) of roughly 290,000 compounds were called active. The sample as a whole holds a higher share of actives than the screen did.
experimentalReadout: inhibition (%)

INSERT INTO results (molecule, measuredtarget, experimentalreadout, result) VALUES
  ('C=CCNC(=S)NNc1ncnc2sc3c(c12)CC(C)(C)OC3', 'M18 aspartyl aminopeptidase (Plasmodium falciparum 3D7)', 'inhibition', 30.1),
  ('CCCc1cc(=O)oc2c(C)c(OCC(=O)N3CCC(C(=O)O)CC3)ccc12', 'M18 aspartyl aminopeptidase (Plasmodium falciparum 3D7)', 'inhibition', 5.91),
  ('COC(=O)C1[C@H]2SC(C)(C)C(C(=O)OC)N2C(=O)N1Cc1nc2ccccc2s1 (stereo partly specified)', 'M18 aspartyl aminopeptidase (Plasmodium falciparum 3D7)', 'inhibition', 2.76),
  ('CC(C)CNC(=O)C(=O)Nc1ccc(N(C)C)cc1', 'M18 aspartyl aminopeptidase (Plasmodium falciparum 3D7)', 'inhibition', 5.25),
  ('CCC(O)CNc1nc(-n2nc(C)cc2C)nc2sc3c(c12)CC(C)(C)OC3 (stereo unspecified)', 'M18 aspartyl aminopeptidase (Plasmodium falciparum 3D7)', 'inhibition', -1.41),
  ('Cc1c(NC(=O)Nc2ccccc2Cl)sc(=S)n1C', 'M18 aspartyl aminopeptidase (Plasmodium falciparum 3D7)', 'inhibition', 4.48),
  ('O=C(COc1ccc([N+](=O)[O-])cc1Cl)Nn1cnnc1', 'M18 aspartyl aminopeptidase (Plasmodium falciparum 3D7)', 'inhibition', 33),
  ('CSc1ccc(S(=O)(=O)N2CCC(C(=O)NCCc3ccccc3)CC2)cc1', 'M18 aspartyl aminopeptidase (Plasmodium falciparum 3D7)', 'inhibition', 0.01),
  ('COc1ccc(N2CCN(C(=O)Cn3cnc4sc(C)c(S(=O)(=O)N5CCOCC5)c4c3=O)CC2)cc1', 'M18 aspartyl aminopeptidase (Plasmodium falciparum 3D7)', 'inhibition', 2.52),
  ('CCS(=O)(=O)c1cc([N+](=O)[O-])c(Sc2ccccc2N)s1', 'M18 aspartyl aminopeptidase (Plasmodium falciparum 3D7)', 'inhibition', 38.9),
  ('O=C(Nc1ccccc1Cl)Nn1cnnc1', 'M18 aspartyl aminopeptidase (Plasmodium falciparum 3D7)', 'inhibition', 77.6),
  ('Cc1cc([N+](=O)[O-])c(-c2ccc(/C=N/n3cnnc3)o2)cc1Cl', 'M18 aspartyl aminopeptidase (Plasmodium falciparum 3D7)', 'inhibition', 40.4),
  ('Cc1ccc(CNC(=O)[C@@H](NC(=O)Cc2ccccc2)C(C)C)cc1', 'M18 aspartyl aminopeptidase (Plasmodium falciparum 3D7)', 'inhibition', 5.66),
  ('O=C(OCc1ccc([N+](=O)[O-])cc1)C1CC(=O)N(Cc2ccccc2Cl)C1 (stereo unspecified)', 'M18 aspartyl aminopeptidase (Plasmodium falciparum 3D7)', 'inhibition', -11.3),
  ('Cc1c(OC(C)C(=O)NCC2CCC(C(=O)O)CC2)ccc2c1oc(=O)c1ccccc12 (stereo unspecified)', 'M18 aspartyl aminopeptidase (Plasmodium falciparum 3D7)', 'inhibition', 5.1),
  ('C=CCOc1cccc(CNCc2cccnc2)c1', 'M18 aspartyl aminopeptidase (Plasmodium falciparum 3D7)', 'inhibition', -17.3),
  ('O=C(c1ccccc1F)N1CCN(S(=O)(=O)c2ccc(Br)cc2)CC1', 'M18 aspartyl aminopeptidase (Plasmodium falciparum 3D7)', 'inhibition', 1.79),
  ('C/C(CC1CC(C)(C)OC1=O)=N/Nc1nc(-c2ccccc2)cs1 (stereo unspecified)', 'M18 aspartyl aminopeptidase (Plasmodium falciparum 3D7)', 'inhibition', 6.59),
  ('O=C(c1ccc[nH]c1=S)N1CCN(S(=O)(=O)c2ccc(Br)cc2Cl)CC1', 'M18 aspartyl aminopeptidase (Plasmodium falciparum 3D7)', 'inhibition', 29.6),
  ('CNC(=O)/C(C#N)=C/c1c(F)cccc1Cl', 'M18 aspartyl aminopeptidase (Plasmodium falciparum 3D7)', 'inhibition', -1.65),
  ('CN(C)c1ccc(C(CC(=O)O)C(=O)O)cc1 (stereo unspecified)', 'M18 aspartyl aminopeptidase (Plasmodium falciparum 3D7)', 'inhibition', 33.2),
  ('O=C(COc1ccccc1Cl)Nc1ccc(C(=O)c2ccc(C(=O)O)cc2)cc1', 'M18 aspartyl aminopeptidase (Plasmodium falciparum 3D7)', 'inhibition', -8.1),
  ('O=C(Nc1ccccc1Cl)Nc1cccc2cccnc12', 'M18 aspartyl aminopeptidase (Plasmodium falciparum 3D7)', 'inhibition', 6.47),
  ('O=C(COc1ccccc1Cl)Nn1cnnc1', 'M18 aspartyl aminopeptidase (Plasmodium falciparum 3D7)', 'inhibition', 31),
  ('CCOC(=O)c1cc(Sc2ccccc2N)cc(C(=O)OCC)n1', 'M18 aspartyl aminopeptidase (Plasmodium falciparum 3D7)', 'inhibition', 10.8),
  ('Cc1cc(=O)[nH]c(SCC(N)=O)c1C#N', 'M18 aspartyl aminopeptidase (Plasmodium falciparum 3D7)', 'inhibition', 6.8),
  ('Cc1cc(C)c([N+](=O)[O-])cc1-c1ccc(/C=N/NC(=O)c2nonc2N)o1', 'M18 aspartyl aminopeptidase (Plasmodium falciparum 3D7)', 'inhibition', 4.59),
  ('Cc1nn(-c2ccccc2)c(C)c1NC(=O)COc1ccc(Cl)cc1Cl', 'M18 aspartyl aminopeptidase (Plasmodium falciparum 3D7)', 'inhibition', -6.26),
  ('CC(C)CCNC(=O)c1ccc2c(Cl)c3c(nc2c1)CCC3', 'M18 aspartyl aminopeptidase (Plasmodium falciparum 3D7)', 'inhibition', -8.56),
  ('CCOc1ccc(CNC(=O)CCC(=O)N2CCSc3ccccc32)cc1', 'M18 aspartyl aminopeptidase (Plasmodium falciparum 3D7)', 'inhibition', 6.53),
  ('CC(=O)NC(CC(=O)O)c1ccc(F)cc1 (stereo unspecified)', 'M18 aspartyl aminopeptidase (Plasmodium falciparum 3D7)', 'inhibition', 4.92);

---

# Test system: M18 aspartyl aminopeptidase (Plasmodium falciparum 3D7)
# protocolDetails: inhibition of P. falciparum M18 aminopeptidase – biochemical, QFRET, recombinant enzyme, primary screen (AID 1822);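 note: 0% = plate median of test compound wells and 100% = 2 mM ZnCl2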
# details: recombinant PfM18AAP, H-Glu-NHMec fluorogenic cleavage; at 7.35 µM; hits give high values
About 3,500 (1.2%) of roughly 290,000 compounds were called active. The full list was thinned out, with actives kept by preference.
experimentalReadout: inhibition

INSERT INTO results (molecule, experimentalreadout, result) VALUES
  ('O=c1[nH]c2ccccc2n2c(-c3ccccc3)nnc12', 'inhibition', '33.2% (active)'),
  ('O=C(CN1CCCC1)Nc1sc2c(c1C(=O)Nc1ccccc1)CCCC2', 'inhibition', '7.15% (inactive)'),
  ('O=C(CN1CCN(c2ccccc2)CC1)Nc1ccc(F)cc1', 'inhibition', '-1.61% (inactive)'),
  ('Cc1ccc(C)c(NC(=S)NNC(=S)Nc2ccc(C(C)C)cc2)c1', 'inhibition', '3.44% (inactive)'),
  ('Cc1ccc(-c2nc3ccccc3[nH]c2=O)cc1', 'inhibition', '-7.7% (inactive)'),
  ('COc1ccc(CNC(=O)c2c[nH]c3c(OC)cc(OC)cc3c2=O)cc1', 'inhibition', '2.86% (inactive)'),
  ('COC(=O)c1c(NC(=O)CCN2CCOCC2)sc2c1CCCC2', 'inhibition', '-1.78% (inactive)'),
  ('CC(C)(C)SCCSC1=CC(=O)CC(c2ccccc2)C1 (configuration not stated)', 'inhibition', '-7.92% (inactive)'),
  ('O=C(CN1CCN(c2cccc(Cl)c2)CC1)Nc1ccc(S(=O)(=O)N2CCOCC2)cc1', 'inhibition', '-3.74% (inactive)'),
  ('O=C1C2CCCN2C(=O)N1CCCCN1CCN(c2cccc(C(F)(F)F)c2)CC1 (configuration not stated)', 'inhibition', '-6.19% (inactive)'),
  ('COc1cc(/C=N/Nc2ccc(C)cc2)cc(Br)c1O', 'inhibition', '18.2% (inactive)'),
  ('O=C(CN1CCOCC1)Nc1cc(Cl)ccc1Cl', 'inhibition', '1.38% (inactive)'),
  ('COc1ccc(/C=C/C(=O)Nc2cccnc2)cc1OC', 'inhibition', '-3.57% (inactive)'),
  ('O=C(CN1CCN(c2ccc(O)cc2)CC1)Nc1cc(S(=O)(=O)N2CCOCC2)ccc1Cl', 'inhibition', '30.2% (active)'),
  ('N#Cc1ccc(CSc2ncccn2)cc1', 'inhibition', '0.4% (inactive)'),
  ('O=C(CN1CCN(c2ccc(F)cc2)CC1)Nc1ccccc1', 'inhibition', '-7.36% (inactive)'),
  ('CCOC(=O)CSc1nnc(NC(=O)C2CC(=O)N(c3ccc(F)cc3)C2)s1 (configuration not stated)', 'inhibition', '-0.3% (inactive)'),
  ('CCOC(=O)c1cccc(NC(=O)CN2C(=O)C3CC=CCC3C2=O)c1 (configuration not stated)', 'inhibition', '0.39% (inactive)'),
  ('COc1ccccc1CNC(=O)c1ccc(CS(=O)(=O)c2ccccc2)o1', 'inhibition', '-0.58% (inactive)'),
  ('OCCN1CCN(c2nnc(-c3ccccc3)c3ccccc23)CC1', 'inhibition', '4.34% (inactive)'),
  ('Cc1nc(N2CCOCC2)c2c(C)c(C(=O)Nc3ccc(C(F)(F)F)cc3)sc2n1', 'inhibition', '-14.6% (inactive)'),
  ('O=C(NC(=S)Nc1ccc(Cl)c(C(=O)O)c1)c1cncc(Br)c1', 'inhibition', '15.9% (inactive)'),
  ('Cc1ccc(S(=O)(=O)CC(=O)NC(C)c2ccccc2)cc1 (configuration not stated)', 'inhibition', '-6.39% (inactive)'),
  ('Cc1nn(CC(=O)NC2CCCCC2)c(=O)c2cccn12', 'inhibition', '-6.41% (inactive)'),
  ('CC(C)Cn1c(N2CCN(C(=O)/C=C/c3ccccc3)CC2)nc2ccccc21', 'inhibition', '2% (inactive)'),
  ('Cc1nc2ccc(S(=O)(=O)NCC(=O)O)cc2s1', 'inhibition', '51.8% (active)'),
  ('CC(=O)c1c(-c2ccccc2)c2ccccc2[nH]c1=O', 'inhibition', '-2.54% (inactive)'),
  ('CCN1CCN(C(=O)C2CCN(S(=O)(=O)c3cc(Cl)ccc3Cl)CC2)CC1', 'inhibition', '-5.08% (inactive)'),
  ('Cc1ccc(C(=O)c2c(NC(=O)c3ccncc3)sc3c2CCCC3)cc1', 'inhibition', '-11.4% (inactive)'),
  ('Cc1cccc(NC(=O)c2sc3nc(N4CCOCC4)c4c(c3c2N)CCCC4)c1', 'inhibition', '41% (active)'),
  ('CCOc1ccc(N/C=C/C(=O)c2ccccc2)cc1', 'inhibition', '0.48% (inactive)'),
  ('N#Cc1ccc(C(c2ccc(C#N)cc2)n2cncn2)cc1', 'inhibition', '51.3% (active)'),
  ('OCCN1CCN(C(=S)c2ccc(-c3ccccc3)cc2)CC1', 'inhibition', '50% (active)'),
  ('S=C(NCCc1ccccc1)N1CCCCC1', 'inhibition', '-5.18% (inactive)'),
  ('Cc1ccc(CN(Cc2cccnc2)C(=S)Nc2cccc(Cl)c2C)cc1', 'inhibition', '-8.48% (inactive)'),
  ('O=C(CN1CCN(c2ccc(O)cc2)CC1)Nc1ccc(-c2ccccc2)cc1', 'inhibition', '42% (active)'),
  ('CCC1(CC)Cc2ccccc2-c2nc(CCl)[nH]c(=O)c21', 'inhibition', '2.03% (inactive)');
